system: hiPSC-derived cardiomyocytes; assay: KIC spontaneous calcium transients in hiPSC-derived cardiomyocytes; format: cell-based, human; conditions: Homo sapiens, Cardiomyocyte, read-out: EC50 Rise Time
pEC50: −log10 of the molar value.
The label depends only on pEC50: Condition met if it is at least 5, Condition not met if it is smaller.

Some entries whose results are on file:
Prompt: Check if pEC50 >= 5 (inclusive). Item: COc1cc(N)c(Cl)cc1C(=O)NC1CCN(CCCOc2ccc(F)cc2)CC1OC (stereo not drawn) [Cisapride]
Response: Condition met

Prompt: Please give the result for CC(C)NCC(O)c1ccc(NS(C)(=O)=O)cc1 (stereo not drawn) too.
Response: Condition not met

Prompt: And then COc1ccc(CCN(C)CCCC(C#N)(c2ccc(OC)c(OC)c2)C(C)C)cc1OC (stereo not drawn) , what is it?
Response: Condition met

Prompt: Next record, please: "O=C(Nc1cc(C(F)(F)F)ccc1O)Nc1cc(C(F)(F)F)ccc1O"
Response: Condition met

Now let's try a different one.
Prompt: Is pEC50 at least 5? Consider "CC1(C)Oc2ccc(C#N)cc2[C@@H](N2CCCC2=O)[C@@H]1O"
Response: Condition met
